Assign composite z-score to each entry below.
# Test system: Sonic hedgehog protein (Shh)
# Experimental protocol: Sonic hedgehog microarray binding compounds – biochemical, small-molecule microarray, 635/667 nm fluorescence, primary screen (AID 1151);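 note: Shh protein binding to compounds spotted on small-molecule microarray slides; score combines spot fluorescence intensity with signal-to-noise across triplicate slides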
# Settings: 635 nm fluorescence, higher = more signal
Answers are plain numbers.

For each of the items listed, what is its composite z-score?
1. NC(=O)N1C(=O)C2C(C1=O)C1C=C(CCCO)C2C(C2CC2)N1Cc1cc2c(cc1Br)OCO2 (stereo unspecified)
2. CC(C)=CCCC(C)=CC(O)C1C=CC2C(=O)N(c3ccccc3)C(=O)C2N1Nc1ccc(C(C)C)cc1 (stereo unspecified)
3. COCCOC(=O)N1C(=O)[C@@]2(c3ccccc31)[C@H](C(=O)N1CCc3cc(OC)c(OC)cc3C1)[C@H]1C(=O)O[C@H](c3ccccc3)[C@H](c3ccccc3)N1[C@@H]2c1ccc(O)cc1
4. COCC(=C=CC[C@H](O)c1ccccc1OCCO)CCO

0.195
-0.309
1.96
1.09

Please give composite z-score, item by item, for the list that follows.
1. C[N+](C)(C)CCCC[C@@H]1NC(=O)[C@H]2C[C@@H](C(=O)NCCCCCCNC(=O)CS)[C@@H](c3ccc(O)cc3)N2C1=O
2. CCCCCCc1nc(-c2ccc(-c3ccc(Cl)c(Cl)c3)o2)c(C)c2c1[Si](C(C)C)(C(C)C)OC2

[0.801, 0.14]

I would be grateful if you could provide composite z-score for each of the following entries.
1. C=C(/C(=C/C[C@H](OC(C)=O)c1ccc(OCCO)cc1)c1cc(C(=O)OC)ccc1OC)C(C)C
2. O=C1C2C=CC(C(O)c3ccc(-c4ccccc4)s3)N(Nc3ccccc3)C2C(=O)N1c1ccccc1 (stereo unspecified)
3. O=C1OCCC=C[C@H]2OC34C=CCN(c5ccc(Cl)cc5)C(=O)[C@H]3N(CCCO)C(=O)[C@@H]4C12 (stereo partly specified)
4. COC(=O)C(CC#Cc1ccc2c(c1)[C@]1(C(=O)N2)[C@H](c2ccc(O)cc2)N2[C@H](c3ccccc3)[C@H](c3ccccc3)OC(=O)[C@H]2[C@@H]1C(=O)N1CCN(c2ncccn2)CC1)C(=O)OC
5. O=C1[C@@]23C=C(Br)[C@H](C[C@@H]2COC3)[C@]12CO2
6. CCCNC(=O)[C@@H]1c2ccccc2C(=O)N(Cc2ccccc2OC)[C@H]1c1ccc(CO)cc1
7. [N-]=[N+]=NCc1ccccc1C[C@@]1(C(=O)NCC(O)CO)N=C(c2ccc(OCCCO)cc2)O[C@@H]1c1ccccc1 (stereo partly specified)
8. NC(=O)[C@@]1(Cc2ccccc2)N=C(c2ccc(OCCCO)cc2)O[C@H]1c1ccccc1

[1.41, 0.0134, 0.0088, 0.618, -0.0003, 1.52, -0.982, -0.558]

State recorded composite z-score for all listed molecules.
1. [N-]=[N+]=Nc1ccccc1C[C@@]1(C(=O)N2CCCCC2)N=C(c2ccc(OCCCO)cc2)O[C@@H]1c1ccccc1N=[N+]=[N-]
2. CCOc1ccc(N2C(=O)CSC2c2cccc([N+](=O)[O-])c2)cc1 (stereo unspecified)

[0.248, 0.0304]

----------
# Experimental protocol: JC-1 mitochondrial signal, unstimulated myeloma cells – cell-based, JC-1 fluorescence, RPMI8226, 24 h, 100 nL compound, profiling panel (AID 1169); note: test concentration not given here
# Settings: JC-1 mitochondrial potential fluorescence, higher = more signal
Decision: z-score >= -0.1 yields Criterion met, all other cases yield Criterion not met.

O=C1OCCC=C[C@H]2OC34C=CCN(Cn5nnc6ccccc65)C(=O)[C@H]3N(CCO)C(=O)[C@@H]4C12 (stereo partly specified) ... Criterion met
CCOC(=O)C[C@H]1[C@H](OC(=O)c2cc3ccccc3oc2=O)[C@@H](NC(=O)CC(C)C)c2cc(OCCCO)ccc2N1C(=O)c1ccccc1 ... Criterion not met
CN(C)CCCC[C@@H]1NC(=O)[C@H]2C[C@@H](C(=O)NCCCCCN)[C@@H](c3cccc(OCCO)c3)N2C1=O ... Criterion met
CCCCC(=C=CC[C@H](O)c1cccc(OCCO)c1)C[C@H](O)c1ccccn1 ... Criterion met
OB1C=CCC(CCc2ccccc2)O1 (stereo unspecified) ... Criterion not met

Hi, just wondering whether C=CCOC(=O)[C@H]1[C@@H]2C(=O)O[C@@H](c3ccccc3)[C@@H](c3ccccc3)N2[C@@H](c2ccc(OCCOC(=O)[C@@H]3C[C@@H]4C(=O)N5CCC[C@H]5C(=O)N4[C@@H]3c3cccc(OCCO)c3)cc2)[C@]12C(=O)Nc1ccc(I)cc12 shows z-score of -0.1 or higher.
Criterion not met

// inclusive: z-score at least -0.1? input: CCCC[C@@H]1C[C@H]1[C@@H](NC(=O)c1cccnc1)c1ccc(Cl)cc1
Criterion not met

Say whether COc1ccc(C(O)C2C=CC3C(=O)N(C)C(=O)C3N2N(c2ccccc2)c2ccccc2)c2ccccc12 (stereo unspecified) shows z-score of -0.1 or more.
Criterion met

Hello, I need to know if O=C1[C@@]23C=C(Br)[C@H](C[C@@H]2COC3)[C@]12CO2 has measured z-score not below -0.1. Thanks!
Criterion not met

Record COC(=O)c1c(CC[C@@H](CO)NC(=O)N[C@@H](Cc2ccccc2)Cn2cc(-c3ccccn3)nn2)oc(C(=O)N2CCOCC2)c1C(=O)OC ; criterion: z-score no lower than -0.1. Met?
Criterion not met

----------
# Experimental protocol: growth modulation of vineyard yeast isolate – strain RM11-1a, OD600, basal, 24 h, primary screen (AID 1177);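 note: cultures grown under basal conditions with no added stressor; test concentration not given here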
# Settings: S. cerevisiae RM11-1a growth, OD600, 24 h; higher = more signal, called active from +8 up or from −8 down
The threshold is inclusive: z-score of exactly 1 counts as Met; values below receive Not met.

A selection of reference data follows.
CCCCC(O)C1C=CC2C(=O)N(C)C(=O)C2N1N1CCCCC1 (stereo not given) ... Met
CC=CC(O)C1C=CC2C(=O)N(C)C(=O)C2N1N(c1ccccc1)c1ccccc1 (stereo not given) ... Not met
[N-]=[N+]=Nc1ccccc1C[C@]1(C(=O)N2CCCCC2)COC(c2ccc(OCCCO)cc2)=N1 ... Not met
O=C(O)C1N=C(c2ccc(OCCCO)cc2)N(c2ccccc2)O1 (stereo not given) ... Not met

We next turn to a different compound, shown below.
# bool: z-score of COC(=O)[C@@]1(CCC(=O)OC(C)(C)C)N=C(c2ccc(OCCCO)cc2)O[C@H]1c1ccccc1 >= 1
Met

----------
# Experimental protocol: plasmodial surface anion channel blockers, osmotic lysis – cell-based, P. falciparum Indochina, OD700, 1 h, primary screen (AID 1154)
# Settings: P. falciparum Indochina infected RBC osmotic lysis, called active from +8 up or from −8 down
The source made the active and inactive calls.
Write down one outcome, taken from active, inactive

COCCOC(=O)N1C(=O)[C@@]2(c3ccccc31)[C@H](c1ccc(OCCO)cc1)N1[C@H](c3ccccc3)[C@H](c3ccccc3)OC(=O)[C@H]1[C@@H]2C(=O)N1CCc2cc(OC)c(OC)cc2C1 ... active
CN(C)C(=O)[C@]1(Cc2ccccc2)N=C(c2ccc(OCCCO)cc2)O[C@@H]1c1ccccc1N=[N+]=[N-] ... active
CC(=O)NCCCC[C@@H]1NC(=O)[C@H]2C[C@@H](C(=O)NCCCCCNC(=O)CS)[C@@H](c3ccc(O)cc3)N2C1=O ... inactive
CO[C@H]1O[C@H](CO)[C@@H](OC(=O)Nc2ccc(Br)cc2)[C@@H]2OC(=O)[C@H](Cc3cccc(Br)c3)C/C=C/C[C@@H](Cc3cccc(Br)c3)C(=O)O[C@@H]12 ... inactive
COCCOC(=O)N1C(=O)[C@@]2(c3cc(C#CC4(O)CCCCCC4)ccc31)[C@H](c1ccccc1OCCO)N1[C@H](c3ccccc3)[C@H](c3ccccc3)OC(=O)[C@H]1[C@@H]2C(=O)N1CCc2cc(OC)c(OC)cc2C1 ... inactive
O=C(O)[C@H](Cc1ccccc1)n1cc(-c2ccccc2)nn1 ... inactive

So what was the verdict on C=C[C@H](C)[C@@H](OC(=O)Nc1ccc(SC)cc1)c1ccc(O)c2ccccc12 in this test?
active

----------
# Experimental protocol: probe aEGFR binding to arrayed compounds – biochemical, biotinylated probe, 635/667 nm fluorescence, primary screen (AID 1097);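 note: probe is a biotinylated anti-EGFR antibody binding compounds printed on slides; score combines fluorescence near 667 nm and signal to noise of each spot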
# Settings: small-molecule microarray, higher = more signal
Where composite z-score equals or exceeds -0.03, the correct label is rule met; where it does not, the label is rule not met.

Worked set:
C=C(CCCC)C(=O)CC[C@@H](OC(C)=O)c1ccc(CO)o1 ... rule not met
COc1ccc(-c2cc3c(c(Cc4ccccc4)n2)[Si](C(C)C)(C(C)C)OC3)cn1 ... rule not met

// inclusive: composite z-score at least -0.03? input: CC(=O)NCCCC[C@@H]1NC(=O)[C@H]2C[C@@H](C(=O)O)[C@@H](c3ccc(O)cc3)N2C1=O
rule met

Entry COc1ccc([Si](C)(C)[C@H]2[C@H](CC(=O)N3CCC[C@H]3CO)O[C@@]3(C(=O)N(Cc4cccc(N5CCOC5=O)c4)c4ccccc43)[C@@H]2C)cc1 : is its composite z-score no less than -0.03?
rule met

Does the compound [N-]=[N+]=NCc1ccccc1C[C@@]1(C(=O)NCC(O)CO)N=C(c2ccc(OCCCO)cc2)O[C@@H]1c1ccccc1 (some centres not stated) have recorded composite z-score that is -0.03 or more?
rule met

Assess whether reported composite z-score for CC[C@@H]1C=C(C(=O)O)[C@H](c2cccc3ccccc23)N1S(=O)(=O)c1ccc(C)cc1 sits at -0.03 or higher.
rule not met

In plain terms: is recorded composite z-score at least -0.03 for COCCOC(=O)N1C(=O)[C@@]2(c3cc(C#CCCO)ccc31)[C@H](c1ccc(O)cc1)N1[C@H](c3ccccc3)[C@H](c3ccccc3)OC(=O)[C@H]1[C@@H]2C(=O)N1CCN(c2ncccn2)CC1 ?
rule not met
